# System: BT-549 breast
# assay: NCI-60 one-dose screen, 48 h (100 = growth as untreated, 0 = no growth, -100 = all killed)
# settings: 10 µM unless noted
This is part of a sample that, as a whole, favours compounds with a hit. Of some 83,000 tested, about 20% had one in any assay.

{"columns": ["compound", "assay.target", "unit.abbreviation", "growth"],
 "data": [
  ["CCc1ccc2c(c1)N(CCO)C1=C(C(=O)OC1)C2c1cccc(Cl)c1 (stereo unspecified)", "BT-549 breast", "%", 42.1],
  ["c1ccc(-c2[nH]c3ccccc3c2-c2ccccc2)cc1", "BT-549 breast", "%", 110],
  ["C#CC[C@@H]1C[C@]2(C)[C@H]3CC=C4[C@H]5[C@@H](C)[C@H](C)CC[C@]5(C(=O)NCCCN5CCN(CCCN)CC5)CC[C@@]4(C)[C@]3(C)CC[C@H]2C(C)(C)[C@H]1OC(C)=O", "BT-549 breast", "%", -3.81],
  ["Oc1ccc(CCCCCCc2ccc(O)cc2)cc1", "BT-549 breast", "%", 50.3],
  ["Cc1cc(NC(=O)C2c3ccccc3C(=O)N(CC(C)C)C2c2cccs2)no1 (stereo unspecified)", "BT-549 breast", "%", -4.46],
  ["Nc1nc(N)c2c(n1)NC(c1sc(Cl)nc1Cl)CC(c1ccc3c(c1)OCO3)=N2 (stereo unspecified)", "BT-549 breast", "%", 27.2]
]}

###

# System: 786-0 renal
# assay: NCI-60 one-dose screen, 48 h (100 = growth as untreated, 0 = no growth, -100 = all killed)
# settings: 10 µM unless noted
About 83,000 compounds went through this panel and 20% of them were active in at least one assay; those are over-represented in the sample as a whole.

{"columns": ["molecule", "growth [%]"],
 "data": [
  ["O=C(O)/C=C(\\c1nc2ccc([N+](=O)[O-])cc2[nH]1)c1cc(Cl)ccc1O", 44],
  ["COc1cccc(/C=N/N=C(N)N)c1", 117],
  ["O=C(CSc1ccc(Cl)cc1)Nc1ccc(-c2nc3ccccc3s2)c(Cl)c1", 48.9],
  ["CNCc1ccccc1CN(CC(=O)Nc1ccc2c(c1)CC1(C2)C(=O)Nc2ncccc21)C(=O)C(C)(C)C (stereo unspecified)", 107],
  ["Cc1nc2ccc(Nc3nc(N4CCOCC4)nc(N4CCN(C)CC4)n3)cc2n1Cc1ccccc1", 72.8],
  ["Cc1[nH]nc2ccc3nc(-c4ccc5[nH]ncc5c4)c4c(c3c12)CCCC4", 34.4],
  ["CN1CCN(Cc2ccc(NC(=O)c3cncc(C#Cc4ncc5ccccn45)c3)cc2C(F)(F)F)CC1", 3.06],
  ["O=C1OCC2=C1C(c1ccc(Cl)c(Cl)c1)c1cc3c(cc1N2CCO)CCC3 (stereo unspecified)", 27.5],
  ["OC(c1cc(-c2ccc(C(F)(F)F)cc2)nc(-c2ccc(C(F)(F)F)cc2)c1)C1CCCCN1 (stereo unspecified)", -75.4],
  ["CSCCC1NC(=O)C(C(C)=Nc2ccccc2)=C1O (stereo unspecified)", 98.9],
  ["COC(=O)C1(C)COP(=O)(NC23CC4CC(CC(C4)C2)C3)OC1 (stereo unspecified)", 102],
  ["CCCCCc1c(C)[nH]c(/C=C2\\N=C(c3ccc[nH]3)C=C2CC)c1C", -93.6],
  ["CNC(=O)c1cc(Oc2ccc(NC(=O)c3nc(S(C)(=O)=O)n(C)c3-c3ccc(F)cc3)cc2)ccn1", 75.4],
  ["COc1cc(C(=O)/C=C/c2cn(-c3ccccc3)nc2-c2cccc(Nc3ccnc4cc(Cl)ccc34)c2)cc(OC)c1OC", 89],
  ["Cc1c(-c2ccc(-c3ccccc3F)cc2)nc2ccc(F)cc2c1C(=O)O", 23],
  ["O=C(Nc1ccccc1Cl)Oc1ccc2ccccc2c1", 90.9],
  ["Cn1c(=O)c2c3c(oc2c2ccccc21)C(=O)c1ccccc1C3=O", 107],
  ["O=C1CC2(O)CSc3nc(=O)cc(n32)N1 (stereo unspecified)", 99.6],
  ["CC(=O)[C@H]1CC[C@H]2[C@@H]3CC[C@H]4CC=CC[C@]4(C)[C@H]3CC[C@]12C", 91.7],
  ["COc1cc(-c2nc(-c3nc4cc(C(=O)c5ccccc5)ccc4[nH]3)cc3c2[nH]c2ccccc23)cc(OC)c1OC", 97.3],
  ["Cc1cc(C)c2c(n1)sc1c(Nc3ccc(O)cc3)ncnc12", 12.6],
  ["O=C1c2ccccc2C2N1CCC1CCc3ccccc3N12 (stereo unspecified)", 99.7],
  ["CCCCCCCCCCCC1=NC(C)(C)CN1C(C)(C)CO", 71.6],
  ["CCNS(=O)(=O)c1ccc(C)cc1", 110],
  ["CC(C)N1CCN(c2ccncc2S(=O)(=O)N2CCN(C)CC2)CC1", 98.6],
  ["Cc1nc2ccc(Nc3nc(NCCN4CCOCC4)nc(Nc4ccc(F)cc4)n3)cc2n1Cc1ccccc1", 4.17],
  ["COc1ccc(/C=C/C(=O)c2ccc(NC(=O)CSc3nnc(-c4ccc(OC)cc4)n3-c3ccccc3)cc2)cc1", 102],
  ["O=C1OCC2=C1C(c1cccc(Br)c1)c1cc3c(cc1N2CCO)OCCO3 (stereo unspecified)", 21.8],
  ["COc1ccc(-c2[nH]nc(N)c2-c2cc(OC)c(OC)c(OC)c2)cc1", 24],
  ["Cc1cc(-c2nnc(/C=C/c3ccc4c(c3)OCO4)o2)n[nH]1", 97.2],
  ["Clc1ccc(-c2nc(Br)cn3ccnc23)cc1", 97.7],
  ["NCCCOc1cc2ccccc2cc1C(=O)NCCCOc1cc2ccccc2cc1C(=O)Nc1ccc(Cl)cc1O", -82.4],
  ["COc1ccc(/C=C2\\CCCC3=C2N=C2SC(C)=NN2C3c2ccc(OC)c(OC)c2)cc1OC (stereo unspecified)", 53],
  ["Fc1ccc(-c2ccnc3nc(-c4ccncc4)nn23)cc1", 88.8],
  ["COc1ccc(OC)c(Nc2nc(-c3c(C)nc4sccn34)cs2)c1", 101],
  ["CC(=O)N[C@@H](CCC(N)=O)C(=O)O", 82.6],
  ["O=NN(CC(=O)NNc1ccccc1)CC(=O)NNc1ccccc1", 90.9],
  ["CN1CCN(Cc2ccc(NC(=O)c3cncc(C#Cc4cnc5cccnn45)c3)cc2C(F)(F)F)CC1", 6.51],
  ["COC(=O)C(C)NC1=C(Cl)C(=O)C(NC(C)C(=O)OC)=C(Cl)C1=O (stereo unspecified)", 105],
  ["O=C(N=Nc1c(Cl)c(O)c2ccccc2c1O)C(=O)Nc1cccc(C(F)(F)F)c1", 90.3],
  ["ClCc1cccc(CSc2ncnc3c2ncn3Cc2cccc(CCl)c2)c1", 13]
]}

###

growth overview
# Test system: HS 578T breast
# assay: NCI-60 one-dose screen, 48 h (100 = growth as untreated, 0 = no growth, -100 = all killed)
# settings: 10 µM
The panel holds about 83,000 compounds, 20% with a hit somewhere; the sample as a whole holds those more often. Activity calls are given as the source filed them. How the source made its calls: active means growth percent below 10; inactive means the rest.
reported.endpoint: growth

{"columns": ["compound", "result"],
 "data": [
  ["COc1cccc(Cn2c(-c3nonc3NC(C)=O)nc3ccccc32)c1", "23.6% (inactive)"],
  ["O=C(N=Nc1c(Cl)c(O)c2ccccc2c1O)C(=O)Nc1cccc(C(F)(F)F)c1", "83.8% (inactive)"],
  ["COc1cc(NC(C)CCCN)c2ncccc2c1Sc1ccc(Cl)cc1 (stereo unspecified)", "58.9% (inactive)"],
  ["FC(F)(F)C1=NNC(c2ccc3ccccc3c2)=NN1", "95.9% (inactive)"],
  ["Cc1ccc(Nc2nc(NCCO)c3ccccc3n2)cc1C", "36.1% (inactive)"],
  ["NC(N)=N/N=C/c1ccccc1", "101% (inactive)"]
]}

###

# Test system: SNB-75 CNS
# assay: NCI-60 one-dose screen, 48 h (100 = growth as untreated, 0 = no growth, -100 = all killed)
# settings: 10 µM unless noted
This is part of a sample that, as a whole, favours compounds with a hit. Of some 83,000 tested, about 20% had one in any assay.
Binning rule for recorded growth: band A: < 40%; band B: ≥ 40% and < 90%; band C: ≥ 90%

{"columns": ["compound", "assigned.label"],
 "data": [
  ["CCN(CC)c1ccc(C(=N)c2ccc(N(C)C)cc2)cc1", "band A"],
  ["COc1c(B(O)O)cccc1-c1nc2c(F)cc3n[nH]c(C)c3c2c2c1CCCC2", "band A"],
  ["CCOP(=O)(O)OP(=O)(O)OCC", "band B"],
  ["CCN1CCN(Cc2ccc(NC(=O)c3nc4ccc5[nH]ncc5c4c4c3CCCC4)cc2C(F)(F)F)CC1", "band B"],
  ["O=C1OCC2=C1C(c1ccc(Cl)c(Cl)c1)c1cc3c(cc1N2CCO)CCC3 (stereo unspecified)", "band A"],
  ["Cc1ccc(O)c(Cc2ccccc2)c1", "band B"],
  ["COc1cc(-c2n/c(=C\\c3c(O)[nH]c4cc(Cl)ccc34)cc3c2=Nc2ccccc2-3)cc(OC)c1OC", "band A"],
  ["COc1cc(C2Nc3ccccc3S2)cc(CN2CCOCC2)c1O (stereo unspecified)", "band B"],
  ["CC(=O)Nc1nonc1-c1nc2ccccc2n1Cc1ccc(C(C)(C)C)cc1", "band B"],
  ["CCCc1cc2c(cc1CN(Cc1cc3c(cc1CCC)OCO3)C(=N)OCC)OCO2", "band C"],
  ["CCOCC(O)(c1ccc(Cl)cc1)c1ccc(Cl)cc1", "band C"],
  ["O=C(O)c1cn(-c2ccccc2)nc1-c1ccc(O)cc1", "band B"],
  ["CC(=O)OC1Oc2cc(C)c(C)cc2-c2oc(=O)c(-c3ccc(F)cc3)cc21 (stereo unspecified)", "band B"],
  ["O=C(Nc1ccc(OS(=O)(=O)c2ccc(F)cc2)cc1)C12CC3CC(CC(C3)C1)C2", "band C"],
  ["O=C1Cc2c([nH]c3ccc([N+](=O)[O-])cc23)-c2ccccc2N1", "band A"],
  ["O=C(Nc1ccc(Cl)c(C(F)(F)F)c1)c1ccc(Nc2ccc(Cl)nn2)cc1", "band B"],
  ["C[C@]12CCc3nc(Nc4ccc(O)cc4)sc3C1=CC[C@@H]1[C@@H]2CC[C@]2(C)/C(=N/NC(N)=S)CC[C@@H]12", "band A"],
  ["COc1ccc2c(c1)CCCC21C(=O)Nc2ccccc21 (stereo unspecified)", "band C"]
]}
